- system: Cytochrome P450 3A4 (Homo sapiens)
- assay-protocol: qHTS Assay for Activators of Cytochrome P450 3A4 (AID 885); also: nearly all actives have a fitted effect of over 65% in size
- condition-summary: recombinant CYP3A4, Luciferin-PPXE luminescence, 60 min; series mostly up to 57.1 µM
Activity calls are given as the source filed them. Calls follow the shape of the dose curve; as a rule, active = well fitted activation curve with a large enough effect; inconclusive = small, poorly fitted or top-dose-only effect; inactive = no such curve, though single readings can be large or run the other way.
Give your call using only these classes: active, inactive

smiles-text	cat
CCNc1ncc2nc(-c3ccc(OC)cc3)c(=O)n(CCOC)c2n1	inactive

Asked: Recorded call for CN(C)C(=O)c1ccc(-c2ccc3ncnc(N(C)C)c3c2)cc1 ?
Given back: inactive

Asked: Recorded call for CC(C)NC(=O)N1CCCC2(CCN(S(=O)(=O)c3ccccc3)CC2)C1 ?
Given back: inactive

---

- assay-protocol: qHTS Assay for Lipid Storage Modulators (AID 1519); as to activity change, negative = inhibition: % is scaled to controls: 0 for no effect and ±100 for the full control effect
- condition-summary: Drosophila S3 cells, BODIPY lipid droplet/cell ratio, laser cytometry; at 57.5 µM (top of the series); cells loaded with oleic acid
Results filed as inconclusive are left out.
readout-name: activity change, negative = inhibition (%)
// note: answer is a bare numeric in %

smiles-text	activity change, negative = inhibition, %
COc1ccc(CNc2ccnc(-c3ccccc3C(F)(F)F)n2)c(OC)c1	6.23
Cc1noc(C)c1C(=O)N1CCC2(CCCN(C(=O)NC(C)C)C2)CC1	6.76
Cn1cc(-c2nc3cnc(N4CCOCC4)nc3n(C3CC3)c2=O)c2ccccc21	8.36
COc1ccc(NC(=O)N2CC3(CCN(S(C)(=O)=O)CC3)C2)cc1	4.64
CN1CCN(c2ncc3nc(-c4cc(F)cc(F)c4)c(=O)n(-c4ccccc4)c3n2)CC1	2.22

Asked: Need activity change, negative = inhibition of CS(=O)(=O)N1CCC2(CC1)CN(Cc1cc(C(F)(F)F)cc(C(F)(F)F)c1)C2 , thanks.
Given back: 2.23

Asked: Need activity change, negative = inhibition of Cn1c(=O)c(-c2ccccc2)nc2cncnc21 , thanks.
Given back: 6.1

Asked: Need activity change, negative = inhibition of COc1ccc(-n2c(=O)cnc3cnc(Oc4ccccc4)nc32)cc1 , thanks.
Given back: 1.98

Asked: Need activity change, negative = inhibition of Cc1nc2cnc(N3CCN(C)CC3)nc2n(CCC#N)c1=O , thanks.
Given back: 4.33

Asked: Need activity change, negative = inhibition of O=c1c(-c2cc(F)cc(F)c2)nc2cncnc2n1Cc1ccccc1 , thanks.
Given back: 2.57

Asked: Need activity change, negative = inhibition of Cc1noc(C)c1-c1cc(N2CCN(C)CC2)ncn1 , thanks.
Given back: 3.89

Asked: Need activity change, negative = inhibition of COc1ccc(-n2c(=O)c(-c3cccc(C#N)c3)nc3cnc(N4CCNCC4)nc32)cc1 , thanks.
Given back: 9.59

---

- assay-protocol: qHTS Assay for Lipid Storage Modulators (AID 1519)
- condition-summary: Drosophila S3 cells, BODIPY lipid droplet/cell ratio, laser cytometry; measured here: lipid channel max response; cells loaded with oleic acid
Inconclusive results are not listed.
Values of max response greater than or equal to 20% map to condition met; values below map to condition not met.

smiles-text	cat
COCCn1c(=O)c(-c2cccc(C#N)c2)nc2cnc(N(C)C)nc21	condition not met
Cc1cccc(CNc2cc(-c3ccccc3CN(C)C)ncn2)c1	condition not met
COc1ccc(C(=O)N2CCC3(CCN(C)CC3)CC2)cc1	condition not met
CC(=O)NCCNc1ncncc1-c1ccc(N(C)C)cc1	condition not met
O=C(c1csnn1)N1CCC2(CC1)CN(c1ccccc1)C2	condition met

Asked: Please tell me: is the compound CN(C)c1nc(-c2ccoc2)nc2ccccc12 at or over 20% in terms of max response?
Given back: condition not met

Asked: Please tell me: is the compound COc1ccc2[nH]cc(CCNc3cc(-c4ccccc4C(F)(F)F)ncn3)c2c1 at or over 20% in terms of max response?
Given back: condition not met

Asked: Please tell me: is the compound Cc1nc2cnc(Oc3cccc(Cl)c3)nc2n(CCC#N)c1=O at or over 20% in terms of max response?
Given back: condition met

Asked: Please tell me: is the compound CC(C)NC(=O)N1CCC2(CC1)CCN(C(=O)c1cccc(F)c1)CC2 at or over 20% in terms of max response?
Given back: condition not met

Asked: Please tell me: is the compound CC(=O)N1CCC2(CC1)CCN(C(=O)Nc1cccc(F)c1)CC2 at or over 20% in terms of max response?
Given back: condition not met

Asked: Please tell me: is the compound FC(F)(F)c1ccccc1-c1nc(NC2CCNCC2)c2ccccc2n1 at or over 20% in terms of max response?
Given back: condition not met
